# Test system: KB-3-1
# assay_details: Cytotoxic Profiling of Annotated Libraries Using Quantitative High-Throughput Screening (AID 1296008); note: % is set by controls: 0 for no effect and ±100 for the full control effect; nearly all actives have a fitted effect of over 60% in size
# test_context: Five cell lines viability, CellTiter-Glo ATP luminescence, 48-72 h; active compounds read low
Records with an inconclusive call do not appear.
Kindly state max response for each of the entries shown.
Answers are plain numbers, in %.

Recorded results for 6 compounds are shown here.
compound | system | measured_quantity | measurement
C=CCN(C1=NCCN1)c1c(Cl)cccc1Cl | KB-3-1 | max response | 1.74
C=CCC1(C(C)CCC)C(=O)N=C(S)NC1=O (centres undefined) | KB-3-1 | max response | -6.22
O=CC=O | KB-3-1 | max response | -15.6
CCc1[nH]c2ccc(OC)cc2c1CCN(C)C | KB-3-1 | max response | -6.67
O[C@H]1[C@H]2[C@H](O)CCCN2C[C@H]1O | KB-3-1 | max response | -14
O=c1[nH]c(=O)n(Cl)c(=O)n1Cl | KB-3-1 | max response | 7.09

Provide max response for all items below, preserving their order.
1. CC(=O)OC1CN2CCC1CC2 (centres undefined)
2. CC(=O)O[C@H]1CC[C@@]2(C)C(=CC[C@@H]3[C@@H]2CC[C@]2(C)C(=O)CC[C@@H]32)C1
3. CC(=O)O[C@H]1C[C@@H](OC(C)=O)C(C)(C)C2C[C@@H](O)[C@]3(C)C(CC[C@@]4(C)[C@H](C5=CC(=O)OC5O)C[C@H]5O[C@]543)[C@]21C (some centres undefined)
4. CN1C(=O)c2ccccc2NC(=O)[C@]12O[C@@H]2c1ccccc1

Response:
4.86
-3.08
6.85
8.97

###

# system: Metallo-beta-lactamase type 2 (Klebsiella pneumoniae)
# assay_details: qHTS to identify inhibitors of the New Delhi Metallo-beta-lactamase (NDM): assay validation screen against the NCATS LOPAC Collection (AID 1794843);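 note: nitrocefin turnover by NDM-1 measured as 485 nm absorbance at plateau; % is set by controls: 0 for no effect and ±100 for the full control effect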
# test_context: NDM-1 enzyme, nitrocefin hydrolysis, absorbance 485 nm; series mostly up to 38.4 µM
Inconclusive results are not listed. Active and inactive are the calls of the source. The call rests on the fitted dose curve; in most records, active means well fitted curve in the direction sought with a large enough effect; inconclusive means small, poorly fitted or top-dose-only effect, or another doubt; inactive means no such curve, though single readings can be large or run the other way.
Select the matching outcome among active, inactive

A selection of reference data follows.
compound | system | class_assignment
CC1(C(=O)O)C2CCC(O2)C1(C)C(=O)O (stereo not drawn) | Metallo-beta-lactamase type 2 (Klebsiella pneumoniae) | inactive
COc1ccc(CNC(=O)/C=C/c2ccc3[nH]cc(CCN(C)C)c3c2)cc1 | Metallo-beta-lactamase type 2 (Klebsiella pneumoniae) | inactive

Prompt: Tell me the assay call for `NC(N)=Nc1ccc2[nH]c3c(c2c1)C[C@@]1(O)[C@H]2Cc4ccc(O)c5c4[C@@]1(CCN2CC1CC1)[C@H]3O5` please.
Response: inactive

Prompt: Tell me the assay call for `Clc1ccc(N2CC3CCC(C2)N3)nn1` please.
Response: inactive

Prompt: Tell me the assay call for `C[N+](C)(C)CCOC(=O)CBr` please.
Response: inactive

Prompt: Tell me the assay call for OC1CCCCC1N1CCC(c2ccccc2)CC1 (stereo not drawn) please.
Response: inactive

Prompt: Tell me the assay call for `CC(=O)NBr` please.
Response: inactive

###

# Test system: AA1029
# assay_details: qHTS profiling for inhibitors of Plasmodium falciparum proliferation (AID 504749); note: nearly all actives have a fitted effect of over 60% in size
# test_context: P. falciparum in erythrocytes, SYBR Green DNA, 72 h; series mostly up to 28.7 µM
Inconclusive results are not listed. Activity calls are given as the source filed them. Calls follow the shape of the dose curve; as a rule, active = well fitted inhibition curve with a large enough effect; inconclusive = small, poorly fitted or top-dose-only effect; inactive = flat fitted curve, though single readings scatter.
Select the matching outcome among YES for active, NO for inactive

molecule | class_assignment
O[C@H]1[C@H]2[C@H](O)CCCN2C[C@H]1O | NO
O=[N+]([O-])C(Br)(CO)CO | NO
CCOP(=O)(OCC)O/C(=C/Cl)c1ccc(Cl)cc1Cl | NO
CCC1(c2ccccc2)C(=O)NC(=O)NC1=O | NO
CCC(C)(S(=O)(=O)CC)S(=O)(=O)CC | NO

Prompt: Tell me the assay call for `CCCCCCCCCC(=O)O[C@H]1CC[C@H]2[C@@H]3CCC4=CC(=O)CC[C@]4(C)[C@H]3CC[C@]12C` please.
Response: NO

Prompt: Tell me the assay call for `O=C(OCCN1CCCCC1)C(O)(c1ccccc1)c1ccccc1` please.
Response: NO

Prompt: Tell me the assay call for `O=C(O)C(Cl)(Cl)Cl` please.
Response: NO

Prompt: Tell me the assay call for `F/C(COc1ccc2c(c1)[nH]c1ccccc12)=C1/CN2CCC1CC2` please.
Response: YES

Values compiled from PubChem BioAssay (NCATS).
